# credit: ChEMBL document CHEMBL5303573

- assay protocol: The drug is tested on Anaerococcus hydrogenalis strain: DSM7454 for biotransformation. The drug concentrations were measured before and after a 12-h incubation by liquid-chromatography-coupled mass spectrometry (LC–MS)
- test parameters: 2 µM
value kind: Bacterial Biotransformation

[[record]]
compound = "OC(CCN1CCCCC1)(c1ccccc1)C1CC2C=CC1C2 (stereo not given)"
observed_measurement = "Compound NOT metabolized"

[[record]]
compound = "CN1CCC(OC(c2ccccc2)c2ccccc2)CC1"
observed_measurement = "Compound NOT metabolized"

[[record]]
compound = "CCc1cccc2c3c([nH]c12)C(CC)(CC(=O)O)OCC3 (stereo not given)"
observed_measurement = "Compound NOT metabolized"

[[record]]
compound = "CCCC(=O)Nc1ccc(OCC(O)CNC(C)C)c(C(C)=O)c1 (stereo not given)"
observed_measurement = "Compound NOT metabolized"

[[record]]
compound = "CC(=O)Nc1ccc(OC(C)=O)cc1 [DIACETAMATE]"
observed_measurement = "Compound metabolized"


Lookup: Provide one value: measured Bacterial Biotransformation of CN1C(=O)CCS(=O)(=O)C1c1ccc(Cl)cc1 (stereo not given)
Found: Compound NOT metabolized
